Listed here are binders together with their documented kd var/kd wt.
# assay system: T1, human TGFβ1 (human, UniProt P01137 279-390)
# T1 construct: also called TGFβ1 homodimer
# T1 sequence (P01137 279-390 limits assumed): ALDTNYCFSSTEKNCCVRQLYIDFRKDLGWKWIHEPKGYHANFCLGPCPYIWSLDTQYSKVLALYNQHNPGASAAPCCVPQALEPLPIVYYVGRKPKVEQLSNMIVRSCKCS
# procedure text: Biacore off-rate vs wt GC1008, 50 nM
property: kd var/kd wt

>  <binder>
S31W (antibody, V domains shown, GC1008 IgG4 variant) VH: QVQLVQSGAEVKKPGSSVKVSCKASGYTFSWNVISWVRQAPGQGLEWMGGVIPIVDIANYAQRFKGRVTITADESTSTTYMELSSLRSEDTAVYYCASTLGLVLDAMDYWGQGTLVTVSS VL: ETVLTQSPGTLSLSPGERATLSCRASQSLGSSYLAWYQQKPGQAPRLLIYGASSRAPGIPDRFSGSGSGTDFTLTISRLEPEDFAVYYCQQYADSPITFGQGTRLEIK

>  <observed value>
1.7

$$$$
>  <binder>
S30T (antibody, V domains shown, GC1008 IgG4 variant) VH: QVQLVQSGAEVKKPGSSVKVSCKASGYTFTSNVISWVRQAPGQGLEWMGGVIPIVDIANYAQRFKGRVTITADESTSTTYMELSSLRSEDTAVYYCASTLGLVLDAMDYWGQGTLVTVSS VL: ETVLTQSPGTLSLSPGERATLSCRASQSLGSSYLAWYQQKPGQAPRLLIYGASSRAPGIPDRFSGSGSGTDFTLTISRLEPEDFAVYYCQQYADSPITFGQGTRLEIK

>  <observed value>
1.2

$$$$
>  <binder>
E74T (antibody, V domains shown, GC1008 IgG4 variant) VH: QVQLVQSGAEVKKPGSSVKVSCKASGYTFSSNVISWVRQAPGQGLEWMGGVIPIVDIANYAQRFKGRVTITADTSTSTTYMELSSLRSEDTAVYYCASTLGLVLDAMDYWGQGTLVTVSS VL: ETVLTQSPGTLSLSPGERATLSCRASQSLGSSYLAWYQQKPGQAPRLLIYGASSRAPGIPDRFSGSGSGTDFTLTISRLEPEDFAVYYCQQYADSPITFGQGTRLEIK

>  <observed value>
0.8

$$$$

Just for reference, patent US20170342144A1 is where these values come from.
